Test system: Staphylococcus aureus
Experiment: Antimicrobial activity against methicillin-resistant Staphylococcus aureus ATCC 43300 measured after overnight incubation by microdilution method
Format: functional
Would you mind telling me the reported MBC of each entry?
Report the value in µg/mL with no unit label.

Quick note, MBC for CC(c1ccc(Cl)c(Cl)c1)n1cnc2cc3c(cc21)CCC3 (centres undefined) landed at 12.5

Quick note, MBC for CC(c1ccc(Cl)c(Cl)c1)n1cnc2cc3c(cc21)CCCC3 (centres undefined) landed at 25
